tested on: CCRF-CEM; assay: cells; settings: Homo sapiens, 72 h
Description: Antiproliferative activity against human CEM cells assessed as growth inhibition after 72 hrs by MTT assay
pIC50: −log10 of the molar value.
endpoint: pIC50

[a] COc1cc2c3c4c(c(NCCN)cc(C)c14)C(=O)c1c(O)cc(O)c(c1-3)C(=O)C2(C)C
[b] Cc1cc(NCCN)c2c3c4c(cc(O)c13)C(C)(C)C(=O)c1c(O)cc(O)c(c1-4)C2=O
Query: Please compare: a and b . Report which one has the smaller pIC50 value. Answer format: the label of the selected item.
Reply: b
(b: 5.68, a: 6.10)

* * *

Each entry below lists one item and its recorded pIC50 value.
test system: HMEC-1; test: Cytotoxicity against human HMEC-1 cells assessed as growth inhibition after 72 hrs by MTT assay; type: cell-based; settings: HMEC-1, 72 h
# log scale: pIC50 equals minus log10 of the concentration in mol/L

Cc1cc(NCCN)c2c3c4c(cc(O)c13)C(C)(C)C(=O)c1c(O)cc(O)c(c1-4)C2=O : 5.92
COc1cccc2c1C(=O)c1c(O)c3c(c(O)c1C2=O)C[C@@](O)(C(=O)CO)C[C@@H]3O[C@H]1C[C@H](N)[C@H](O)[C@H](C)O1 : 7.00

Query: Entry "COc1cc2c3c4c(c(NCCN)cc(C)c14)C(=O)c1c(O)cc(O)c(c1-3)C(=O)C2(C)C" : reported pIC50 = ?
Reply: 6.15
